B1: library; a variant is named by its letters at N, in order (parent)
chain: GCUGUCACCGAGAAACUGUGAAGUAUAUCUUAAACCUGGGCACUUAAAAGAUAUAUGGAGUUAGUAGUGCAACCUGCUCGGUCUGAUGAGUCCNNNNNNGGACGAAACAGC

# Variants of: B1
# ASSAY_COMMENT: FACS-Seq fitted mean relative fluorescence mCherry/BFP with ligand (log10 relative fluorescence); HEK293T; ligand: cyclic di-GMP (c-di-GMP-II aptamer); ligand concentration (+) FACS-Seq: 1 mM; higher = higher reporter protein expression
# ASSAY_CONTEXT: ligand present: yes
READOUT_KIND: FACS-Seq fitted mean (log10)
Format: numeric value only, no unit, no commentary.

Answered examples (5):
Lookup result for CCGACA ; measured FACS-Seq fitted mean (log10): -0.142

Lookup result for UGUAUA ; measured FACS-Seq fitted mean (log10): 0.221

Lookup result for AAGGUU ; measured FACS-Seq fitted mean (log10): -0.152

Lookup result for UUACCC ; measured FACS-Seq fitted mean (log10): 0.0203

Lookup result for CGACGA ; measured FACS-Seq fitted mean (log10): -0.105

# next variant below
Lookup result for UAAGGA ; measured FACS-Seq fitted mean (log10): -0.73
